All figures here come from patent US8962057B2.

Molecular target: TRPV1 (Homo sapiens)
Construct: expressed in transfected cells
Assay: TRPV1 enhancement, enhancer added after TRPV1 activator capsaicin
Type: cell-based
Description: In order to determine whether TRPV1 is activated, the intracellular calcium ion (Ca^+2) levels in TRPV1 receptors is measured. […] Fluo-4 is a fluorescent dye used for quantifying cellular Ca^2+ concentrations in the 100 nM to 1 microM range. […] […] For determining the direct effect of test compounds on TRPV1, fluorescence is measured immediately after addition of each compound.
Measured % Enhancement accompanies every entry in the list below.
Give a bare numeral; the unit % is implied.

Here are 3 compounds together with their reported answers.
| Compound | Unit Annotation | % Enhancement |
| --- | --- | --- |
| CCCC(=O)OC/C=C(\C)CCC=C(C)C [Geranyl Butyrate] | % | 23.46 |
| C=C(OCC)C1C(C)(C)CC(=O)CC1(C)C [Kephalis] | % | 13.74 |
| C/C=C\C(=O)C1C(C)=CCCC1(C)C (stereo not drawn) [Alpha-Damascone] | % | 28.1 |

// switching to the query compound
Query: % Enhancement; subject: C=C(C)C1CC=C(C)C(OC(C)=O)C1 (centres unmarked) [carvyl acetate]
12.83

---

Measured 'Hotness' (as log Scoville Units) accompanies every entry in the list below.
Experiment: Burning sensation on the standard Scoville hotness scale
Conditions: burning sensation

Here are 5 compounds together with their reported answers.
| Compound | 'Hotness' (as log Scoville Units) |
| --- | --- |
| CCCCC/C=C/C(=O)CCc1ccc(O)c(OC)c1 | 5.1 log Scoville Units |
| C=CCS[S+]([O-])CC=C (stereo not drawn) | 4.0 log Scoville Units |
| CCCCOCc1ccc(O)c(OC)c1 | 5.7 log Scoville Units |
| COc1cc(CCC(C)=O)ccc1O | <4.0 log Scoville Units |
| COc1cc(CNC(=O)CCCC/C=C/C(C)C)ccc1O [Capsaicin, reference compound] | 7.2 log Scoville Units |

// switching to the query compound
Query: 'Hotness' (as log Scoville Units); subject: `CCCCC[C@H](O)CC(=O)CCc1ccc(O)c(OC)c1`
4.9 log Scoville Units

---

Target: TRPV1 (Homo sapiens, UniProt Q8NER1)
Construct: expressed in transfected cells
Sequence (Q8NER1 whole entry): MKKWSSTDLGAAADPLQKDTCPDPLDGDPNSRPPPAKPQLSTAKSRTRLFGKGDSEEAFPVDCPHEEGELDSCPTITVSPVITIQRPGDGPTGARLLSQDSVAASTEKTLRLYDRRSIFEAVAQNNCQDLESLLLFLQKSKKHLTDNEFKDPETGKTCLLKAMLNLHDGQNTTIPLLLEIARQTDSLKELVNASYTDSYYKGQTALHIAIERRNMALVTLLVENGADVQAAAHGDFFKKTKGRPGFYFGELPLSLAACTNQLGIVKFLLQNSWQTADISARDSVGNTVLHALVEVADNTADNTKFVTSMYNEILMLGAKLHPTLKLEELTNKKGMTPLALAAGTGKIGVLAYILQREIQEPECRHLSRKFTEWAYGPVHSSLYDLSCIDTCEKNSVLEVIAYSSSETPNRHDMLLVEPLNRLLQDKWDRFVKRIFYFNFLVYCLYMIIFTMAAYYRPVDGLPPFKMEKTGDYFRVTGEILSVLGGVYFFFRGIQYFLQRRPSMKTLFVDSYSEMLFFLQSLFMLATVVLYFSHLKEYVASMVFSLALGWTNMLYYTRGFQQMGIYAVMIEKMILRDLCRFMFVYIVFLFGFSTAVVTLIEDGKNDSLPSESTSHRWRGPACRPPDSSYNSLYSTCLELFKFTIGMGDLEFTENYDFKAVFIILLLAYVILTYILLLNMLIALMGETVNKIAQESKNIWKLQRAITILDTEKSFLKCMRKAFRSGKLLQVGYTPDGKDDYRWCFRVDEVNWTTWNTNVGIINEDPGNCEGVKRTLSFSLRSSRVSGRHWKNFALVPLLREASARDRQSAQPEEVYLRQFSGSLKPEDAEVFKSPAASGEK
Assay: TRPV1 enhancement, enhancer added after TRPV1 activator capsaicin
Format: cell-based
Endpoint Label: % Enhancement (%)
Give a bare numeral; the unit % is implied.

Here are 5 compounds together with their reported answers.
| Compound | Endpoint Label | Quantitative Result |
| --- | --- | --- |
| C/C=C/C(=O)C1C(C)C=CCC1(C)C (stereo not shown) | % Enhancement | 28.53 |
| O=Cc1ccco1 | % Enhancement | 19.29 |
| CC(=O)OC(C)(C)Cc1ccccc1 [Alpha, Alpha Dimethylphenethyl Acetate] | % Enhancement | 14.64 |
| CCCCCCC(C)=O | % Enhancement | 19.87 |
| CCC/C=C/COC(C)=O [Trans-2-Hexenyl Acetate] | % Enhancement | 10.62 |

Query: % Enhancement; subject: CC(=O)/C=C/C1C(C)=CCCC1(C)C (stereo not shown)
18.84

Query: % Enhancement; subject: `COC(Cc1ccccc1)OC`
14.07

Query: % Enhancement; subject: O=P([O-])([O-])OP(=O)([O-])[O-].[Na+].[Na+].[Na+].[Na+] [Tetrasodium Pyrophosphate]
15.62

Query: % Enhancement; subject: CC(C)=CCCC(C)C=O (stereo not shown)
17.5

Query: % Enhancement; subject: `CCCCCCCO`
10.16
